assay.overview: small-molecule binders of probe aNOTCH3, primary screen, biochemical, small-molecule microarray, 635/667 nm fluorescence (AID 1120);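 note: probe is a biotin-tagged antibody raised against NOTCH3 rather than NOTCH3 protein; score merges spot fluorescence near 667 nm with spot signal to noise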
condition.info: higher = more signal
// label = 1.0 if composite z-score is not less than 0.1, otherwise 0.0

- CC(C)(C)OC(=O)CC[C@]1(C(N)=O)N=C(c2ccc(OCCCO)cc2)O[C@H]1c1ccccc1CN=[N+]=[N-]: 1.0
- NCCCC[C@@H]1NC(=O)[C@H]2C[C@@H](C(=O)NCc3ccc(F)cc3)[C@@H](c3cccc(OCCO)c3)N2C1=O: 1.0
- O=C1O[C@@H](c2ccccc2)[C@@H](c2ccccc2)N2[C@@H](c3ccc(OCCO)cc3)[C@]3(C(=O)Nc4ccc(C#CCCO)cc43)[C@@H](C(=O)Nc3nc4ccccc4s3)[C@H]12: 1.0
- C=CCNC(=O)[C@@H]1[C@H]2C(=O)O[C@H](c3ccccc3)[C@H](c3ccccc3)N2[C@H](c2ccccc2OCCO)[C@@]12C(=O)N(C(=O)OCCOC)c1ccc(C#CCCO)cc12: 0.0
- C[C@]1(C(=O)NCC(F)(F)F)c2ccccc2C(=O)N(Cc2ccc(OC(F)(F)F)cc2)[C@H]1c1ccc(CO)cc1: 0.0
- C=C(COC)C(=O)CC[C@@H](OC(=O)c1cccnc1)c1cccc(OCCO)c1: 1.0
